The values you see were collected from patent US20210275686A1.

MEASUREMENT_TARGET: T1, CXCR5 (CD185; SwissProt: P32302; NCBI reference sequence: NP_001707.1) (human, UniProt P32302 1-372)
T1 sequence: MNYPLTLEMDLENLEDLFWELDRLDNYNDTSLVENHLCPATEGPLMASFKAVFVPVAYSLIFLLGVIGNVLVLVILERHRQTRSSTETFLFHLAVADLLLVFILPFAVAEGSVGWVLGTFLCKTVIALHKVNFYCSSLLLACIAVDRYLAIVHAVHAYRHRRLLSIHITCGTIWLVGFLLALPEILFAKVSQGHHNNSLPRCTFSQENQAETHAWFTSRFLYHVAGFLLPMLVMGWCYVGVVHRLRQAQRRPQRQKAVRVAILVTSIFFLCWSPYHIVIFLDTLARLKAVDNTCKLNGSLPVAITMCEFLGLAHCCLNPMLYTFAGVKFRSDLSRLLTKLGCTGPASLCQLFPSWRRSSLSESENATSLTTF
EXPERIMENT_DESCRIPTION: cell-based or functional assay
ASSAY_ENDPOINT: Internalization SU-DHL-6 [MFI] (MFI)
// return numeric value only (unit: MFI, not printed)

Observe how each entry below is paired with its result.
{"columns": ["BINDER", "RESULT_NUMBER"],
 "data": [
  ["TPP-10063 (antibody, human IgG1, lambda, V domains shown, CypHer 5E fluorescent dye coupled to lysine residues (positions not stated)) VH: EVQLLESGGGLVQPGGSLRLSCAASGFTFSNYWMSWVRQAPGKGLEWVSAISGSGGSTYYADSVKGRFTISRDNSKNTLYLQMNSLRAEDTAVYYCTTLRRELGATNWGQGTLVTVSS VL: QSVLTQPPSASGTPGQRVTISCTGSSSNIGAGYVVHWYQQLPGTAPKLLIYSNNQRPSGVPDRFSGSKSGTSASLAISGLRSEDEADYYCQSYDSSLSGVVFGGGTKLTVLG", 22],
  ["TPP-14509 (antibody, human IgG1, lambda, V domains shown, CypHer 5E fluorescent dye coupled to lysine residues (positions not stated)) VH: EVQLLESGGGLVQPGGSLRLSCAASGFTFSNYWMSWVRQAPGKGLEWVSAISGSGGSTYYADSVKGRFTISRDNSKNTLYLQMNSLRAEDTAVYYCTVQRRELGATNWGQGTLVTVSS VL: QSVLTQPPSASGTPGQRVTISCTGSSSNIGAGYVVHWYQQLPGTAPKLLIYSNNQRPSGVPDRFSGSKSGTSASLAISGLRSEDEADYYCQSYDSSLSGVVFGGGTKLTVLG", 51],
  ["40C01 (antibody, human IgG1, kappa, V domains shown, CypHer 5E fluorescent dye coupled to lysine residues (positions not stated)) VH: EVQLLESGGGLVQPGGSLRLSCAASGFTFSRYVMVWVRQAPGKGLEWVSGISPSGGVTRYAASVKGRFTISRDNSKNTLYLQMNSLRAEDTAVYYCARIRKEMTTISYFFDYWGQGTLVTVSS VL: DIQMTQSPSSLSASVGDRVTITCRASQGVDAYVAWYQQKPGKVPKLLIYSTSTLASGVPSRFSGSGSGTDFTLTISSLQPEDVATYYCQSHNAAVVTFGQGTRLEIKR", 13]
]}

Fill in: Internalization SU-DHL-6 [MFI] of TPP-14514 (antibody, human IgG1, lambda, V domains shown, CypHer 5E fluorescent dye coupled to lysine residues (positions not stated)) VH: EVQLLESGGGLVQPGGSLRLSCAASGFTFSNNWMSWVRQAPGKGLEWVSAISGSGGSTYYADSVKGRFTISRDNSKNTLYLQMNSLRAEDTAVYYCTVQRRELGATNWGQGTLVTVSS VL: QSVLTQPPSASGTPGQRVTISCTGSSSNIGAGYVVHWYQQLPGTAPKLLIYSNNQRPSGVPDRFSGSKSGTSASLAISGLRSEDEADYYCQSYDSSLSGVVFGGGTKLTVLG is ___
53

Fill in: Internalization SU-DHL-6 [MFI] of TPP-14495 (antibody, human IgG1, lambda, V domains shown, CypHer 5E fluorescent dye coupled to lysine residues (positions not stated)) VH: EVQLLESGGGLVQPGGSLRLSCAASGFTFSNYWMSWVRQAPGKGLEWVSAISGSGGSTRYADSVKGRFTISRDNSKNTLYLQMNSLRAEDTAVYYCTTQRRELGATNWGQGTLVTVSS VL: QSVLTQPPSASGTPGQRVTISCTGSSSNIGAGYVVHWYQQLPGTAPKLLIYSNNQRPSGVPDRFSGSKSGTSASLAISGLRSEDEADYYCQSYDSSLSGVVFGGGTKLTVLG is ___
12

Fill in: Internalization SU-DHL-6 [MFI] of TPP-14505 (antibody, human IgG1, lambda, V domains shown, CypHer 5E fluorescent dye coupled to lysine residues (positions not stated)) VH: EVQLLESGGGLVQPGGSLRLSCAASGFTFSNNWMSWVRQAPGKGLEWVSAISGSGGSTYYADSVKGRFTISRDNSKNTLYLQMNSLRAEDTAVYYCNVQRRELGATNWGQGTLVTVSS VL: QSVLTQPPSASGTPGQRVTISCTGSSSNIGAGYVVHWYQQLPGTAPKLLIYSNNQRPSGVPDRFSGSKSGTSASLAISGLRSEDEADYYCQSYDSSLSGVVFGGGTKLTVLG is ___
61

Fill in: Internalization SU-DHL-6 [MFI] of TPP-14499 (antibody, human IgG1, lambda, V domains shown, CypHer 5E fluorescent dye coupled to lysine residues (positions not stated)) VH: EVQLLESGGGLVQPGGSLRLSCAASGFTFSNYWGSWVRQAPGKGLEWVSAISGSGGSTYYADSVKGRFTISRDNSKNTLYLQMNSLRAEDTAVYYCTVLRRELGATNWGQGTLVTVSS VL: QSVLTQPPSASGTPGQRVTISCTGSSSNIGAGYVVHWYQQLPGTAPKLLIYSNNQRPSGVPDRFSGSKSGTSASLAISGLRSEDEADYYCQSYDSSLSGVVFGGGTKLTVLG is ___
55

Fill in: Internalization SU-DHL-6 [MFI] of TPP-14511 (antibody, human IgG1, lambda, V domains shown, CypHer 5E fluorescent dye coupled to lysine residues (positions not stated)) VH: EVQLLESGGGLVQPGGSLRLSCAASGFTFSNYWMSWVRQAPGKGLEWVSAISGSGGTTYYADSVKGRFTISRDNSKNTLYLQMNSLRAEDTAVYYCTTQRRELGATNWGQGTLVTVSS VL: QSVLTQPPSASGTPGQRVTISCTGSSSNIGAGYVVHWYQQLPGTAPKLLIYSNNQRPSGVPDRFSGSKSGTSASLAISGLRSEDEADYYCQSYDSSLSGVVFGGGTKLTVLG is ___
24
